# TESTED_SYSTEM: Hepatocyte Growth Factor (HGF), human (human, UniProt P14210 32-728)
# Sequence (P14210 32-728): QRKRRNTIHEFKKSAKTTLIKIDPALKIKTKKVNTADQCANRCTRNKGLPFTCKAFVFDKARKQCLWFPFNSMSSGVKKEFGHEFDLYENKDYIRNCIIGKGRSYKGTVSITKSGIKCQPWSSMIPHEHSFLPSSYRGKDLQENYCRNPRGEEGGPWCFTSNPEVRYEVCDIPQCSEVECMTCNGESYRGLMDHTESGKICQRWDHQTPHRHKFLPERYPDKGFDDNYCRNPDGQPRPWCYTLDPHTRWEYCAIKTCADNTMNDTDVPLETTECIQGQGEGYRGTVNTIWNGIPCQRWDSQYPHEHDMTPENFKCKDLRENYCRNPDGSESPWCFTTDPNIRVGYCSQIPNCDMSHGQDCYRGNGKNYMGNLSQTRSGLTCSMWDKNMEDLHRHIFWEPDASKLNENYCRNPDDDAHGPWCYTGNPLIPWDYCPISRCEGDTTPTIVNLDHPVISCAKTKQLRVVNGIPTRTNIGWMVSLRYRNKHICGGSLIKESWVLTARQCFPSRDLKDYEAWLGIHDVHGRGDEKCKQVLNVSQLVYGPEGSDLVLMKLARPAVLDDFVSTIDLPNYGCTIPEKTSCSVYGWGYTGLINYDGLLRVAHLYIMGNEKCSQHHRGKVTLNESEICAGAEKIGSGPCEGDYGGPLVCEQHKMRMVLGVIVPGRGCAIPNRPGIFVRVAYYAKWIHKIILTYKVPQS
# ASSAY_TEXT: ELISA
REPORTED_METRIC: EC50 (nM)
# value in nM; strip the unit string

IN: What value of EC50 has been recorded for this entry: HC 8/SLC 5 (antibody) chain 1: GQGTLVTVSSASTKGPSVQPVLHQPPAMSSALGTTIRLTCTLRNDHDIGVYSVYWYQQRPGHPPRFLLRYFSQSDKSQGPQVPPRFSGSKDVARNRGYLSISELQPEDEAMYYCAMGARSRCWPRGFQSKHNSVTHVFGSGTQLTVLSQPKATPSVTLFPPSSEELQANKATLVCLMNDFYPGILTVTWKADGTPITQGVEMTTPSKQSNNKYAASSYLSLTPEQWRSRRSYSCQVMHEGSTVEKTVAPAECS chain 2: MSWAPVLLMLFVYCTGCGPQPVLHQPPAMSSALGTTIRLTCTLRNDHDIGVYSVYWYQQRPGHPPRFLLRYFSQSDKSQGPQVPPRFSGSKDVARNRGYLSISVTHVFGSGTQLTVLSQPKAQVQLVQ
OUT: 0.063
